Molecular target: DLL3 endogenously expressed on NCI-H82 cells (UniProt Q9NYJ7)
Sequence (Q9NYJ7 27-618): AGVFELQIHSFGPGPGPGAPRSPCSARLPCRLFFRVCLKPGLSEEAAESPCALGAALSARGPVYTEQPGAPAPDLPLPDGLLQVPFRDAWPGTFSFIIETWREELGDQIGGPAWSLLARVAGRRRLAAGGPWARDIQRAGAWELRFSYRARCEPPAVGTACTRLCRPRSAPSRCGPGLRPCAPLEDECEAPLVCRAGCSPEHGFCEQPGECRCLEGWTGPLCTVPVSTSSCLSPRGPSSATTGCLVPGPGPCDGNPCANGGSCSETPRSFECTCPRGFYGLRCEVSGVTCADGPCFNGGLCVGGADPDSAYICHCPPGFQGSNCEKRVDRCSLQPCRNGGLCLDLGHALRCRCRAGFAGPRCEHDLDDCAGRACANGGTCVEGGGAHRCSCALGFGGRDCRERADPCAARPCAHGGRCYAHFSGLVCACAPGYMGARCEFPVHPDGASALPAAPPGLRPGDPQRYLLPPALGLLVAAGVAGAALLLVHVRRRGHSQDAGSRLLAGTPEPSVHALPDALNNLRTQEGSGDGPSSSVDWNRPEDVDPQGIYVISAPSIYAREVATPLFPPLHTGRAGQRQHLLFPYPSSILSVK
Experiment: FACS on NCI-H82 cells; antibody 0.16 nM
value type: MFI

Known results for binders:
[[record]]
binder = "Hab015VL5VH5a-hFc (scFv, part only; not given: scFv linker and human IgG1 Fc, V domains shown, not shown: another chain or arm of the molecule; a dimerising Fc or GST; small tags and cut ends) VL: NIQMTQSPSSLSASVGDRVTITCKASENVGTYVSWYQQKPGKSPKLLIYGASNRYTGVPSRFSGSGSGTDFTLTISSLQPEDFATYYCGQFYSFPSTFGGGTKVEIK VH: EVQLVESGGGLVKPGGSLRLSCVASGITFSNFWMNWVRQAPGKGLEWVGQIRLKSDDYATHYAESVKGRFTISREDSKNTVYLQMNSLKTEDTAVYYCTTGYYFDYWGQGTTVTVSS"
value_type = "MFI"
experimental_value = 473

[[record]]
binder = "Hab015VL5VH1a-hFc (scFv, part only; not given: scFv linker and human IgG1 Fc, V domains shown, not shown: another chain or arm of the molecule; a dimerising Fc or GST; small tags and cut ends) VL: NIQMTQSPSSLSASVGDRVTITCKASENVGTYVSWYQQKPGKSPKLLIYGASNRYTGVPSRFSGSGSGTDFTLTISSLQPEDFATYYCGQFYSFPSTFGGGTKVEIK VH: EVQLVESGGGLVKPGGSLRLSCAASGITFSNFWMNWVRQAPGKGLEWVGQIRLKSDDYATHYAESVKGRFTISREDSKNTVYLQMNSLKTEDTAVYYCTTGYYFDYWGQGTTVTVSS"
value_type = "MFI"
experimental_value = 478


Next, consider the following binder.
Request: For the binder Hab015VL4VH1a-hFc (scFv, part only; not given: scFv linker and human IgG1 Fc, V domains shown, not shown: another chain or arm of the molecule; a dimerising Fc or GST; small tags and cut ends) VL: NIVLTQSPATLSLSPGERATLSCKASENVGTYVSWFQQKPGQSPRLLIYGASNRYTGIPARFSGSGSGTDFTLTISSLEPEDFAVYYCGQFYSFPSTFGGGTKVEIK VH: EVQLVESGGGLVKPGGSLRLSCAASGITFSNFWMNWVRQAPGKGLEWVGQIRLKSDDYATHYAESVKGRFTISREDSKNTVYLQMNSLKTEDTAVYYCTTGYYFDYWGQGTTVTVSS , give its measured MFI value.
Response: 489
